The reader will find reported ratio of amounts bound vs CE115HA000 values listed item by item below.
# system: T1, CD3ε homodimer protein (human, UniProt P07766 23-126, limits assumed, sulfo-tag or biotin label in some ECL assays)
# T1 construct: also called human CD3ε homodimer protein; CD3 (CD3ε)
# T1 sequence (P07766 23-126 limits assumed): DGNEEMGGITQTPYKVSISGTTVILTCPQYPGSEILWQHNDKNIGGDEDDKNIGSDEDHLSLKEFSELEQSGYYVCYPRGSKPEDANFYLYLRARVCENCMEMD
# assayProcedure: SPR, CD3ε homodimer on chip;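 note: biacore SPR with antibody variants flowed as analyte over amine-coupled CD3ε homodimer on a CM chip, bound amount of each single-residue H chain variant over that of parent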
Please give the numeric answer without any surrounding text.

{"binder": "CE115HA000 N53D (antibody, name in Kabat numbering, V domains shown) VH: QVQLVESGGGVVQPGRSLRLSCAASGFTFSNAWMHWVRQAPGKGLEWVAQIKAKSDNYATYYAESVKGRFTISRDDSKNSLYLQMNSLKTEDTAVYYCRYVHYGAYYGVDAWGQGTTVTVSS VL: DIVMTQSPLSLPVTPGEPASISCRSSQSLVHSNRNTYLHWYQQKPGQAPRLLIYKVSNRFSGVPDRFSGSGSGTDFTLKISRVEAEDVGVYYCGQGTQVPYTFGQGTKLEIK", "ratio of amounts bound vs CE115HA000": 0.39}
{"binder": "CE115HA000 K64Q (antibody, name in Kabat numbering, V domains shown) VH: QVQLVESGGGVVQPGRSLRLSCAASGFTFSNAWMHWVRQAPGKGLEWVAQIKAKSNNYATYYAESVQGRFTISRDDSKNSLYLQMNSLKTEDTAVYYCRYVHYGAYYGVDAWGQGTTVTVSS VL: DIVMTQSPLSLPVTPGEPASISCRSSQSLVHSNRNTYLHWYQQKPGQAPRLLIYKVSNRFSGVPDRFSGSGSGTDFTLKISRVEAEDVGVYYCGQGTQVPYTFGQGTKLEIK", "ratio of amounts bound vs CE115HA000": 0.89}

Below: the item to evaluate.
Consider CE115HA000 Q50A (antibody, name in Kabat numbering, V domains shown) VH: QVQLVESGGGVVQPGRSLRLSCAASGFTFSNAWMHWVRQAPGKGLEWVAAIKAKSNNYATYYAESVKGRFTISRDDSKNSLYLQMNSLKTEDTAVYYCRYVHYGAYYGVDAWGQGTTVTVSS VL: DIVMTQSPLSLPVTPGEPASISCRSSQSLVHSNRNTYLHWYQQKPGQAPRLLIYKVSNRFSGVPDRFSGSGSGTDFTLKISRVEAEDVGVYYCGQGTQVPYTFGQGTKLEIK . Its measured ratio of amounts bound vs CE115HA000 is 0.24

The origin of these recorded values is patent US20220040297A1.
